Test system: KHOS-NP
measurement-notes: relative viability vs DMSO control (72 h) (fraction); higher = more viable cells
settings: 0.00051 µM
readout-label: relative viability
# respond with the number and nothing more

COc1cc(OC)cc(N(CCNC(C)C)c2ccc3ncc(-c4cnn(C)c4)nc3c2)c1; 1.06
NC(=O)c1cccc2cn(-c3ccc([C@@H]4CCCNC4)cc3)nc12; 1.04
CCCS(=O)(=O)N[C@H]1C[C@@H](N(C)c2ncnc3[nH]ccc23)C1; 1.04

Supply relative viability measured with KHOS-NP for "CN(C)C[C@@H]1CCn2cc(c3ccccc32)C2=C(C(=O)NC2=O)c2cn(c3ccccc23)CCO1" .
1.09

Find the measured relative viability of "N#Cc1ccnc(N2C(=O)CC[C@H]2C(=O)N(c2cncc(F)c2)[C@H](C(=O)NC2CC(F)(F)C2)c2ccccc2Cl)c1" with KHOS-NP as test system.
1.05

* * *

Test system: SK-LMS-1
measurement-notes: relative viability vs DMSO control (72 h) (fraction); higher = more viable cells
settings: 0.00457 µM
Documented relative viability across a set of compounds
// print number alone

// solved cases for relative viability follow
N#Cc1ccnc(N2C(=O)CC[C@H]2C(=O)N(c2cncc(F)c2)[C@H](C(=O)NC2CC(F)(F)C2)c2ccccc2Cl)c1; 1.04
CNC(=O)c1cc(Oc2ccc(NC(=O)Nc3ccc(Cl)c(C(F)(F)F)c3)cc2)ccn1; 1.1
Cc1nc(Nc2ncc(C(=O)Nc3c(C)cccc3Cl)s2)cc(N2CCN(CCO)CC2)n1; 1.04
FC(F)(F)c1ccc(CNc2ccc(Cc3c[nH]c4ncc(Cl)cc34)cn2)cn1; 1.04
Cc1c(F)cc(C(=O)NC2CC2)cc1-c1ccc(C(=O)NCC(C)(C)C)cn1; 1

Output measured relative viability for this item: "C=CC(=O)Nc1cc(Nc2nccc(-c3cn(C)c4ccccc34)n2)c(OC)cc1N(C)CCN(C)C"
1.07

Let me know recorded relative viability for "Cc1ccc(NC(=O)c2ccc(CN3CCN(C)CC3)cc2)cc1Nc1nccc(-c2cccnc2)n1" , thanks.
1.02

// Input: "CCN(c1cc(-c2ccc(CN3CCOCC3)cc2)cc(C(=O)NCc2c(C)cc(C)[nH]c2=O)c1C)C1CCOCC1" . Output its relative viability only.
1

* * *

Test system: HS729
measurement-notes: relative viability vs DMSO control (72 h) (fraction); higher = more viable cells
settings: 0.04115 µM
Entries and their relative viability values follow.
Provide a numeric answer; units are not to be included.

Worked examples follow.
N#Cc1ccnc(N2C(=O)CC[C@H]2C(=O)N(c2cncc(F)c2)[C@H](C(=O)NC2CC(F)(F)C2)c2ccccc2Cl)c1 [Ivosidenib]; 0.993
COc1cc2ncnc(Nc3ccc(F)c(Cl)c3)c2cc1NC(=O)/C=C/CN1CCCCC1 [Dacomitinib]; 0.975
C[C@H]1Oc2cc(cnc2N)-c2c(nn(C)c2C#N)CN(C)C(=O)c2ccc(F)cc21 [Lorlatinib]; 0.886

--- query ---
Dear colleague, please send me the reported relative viability for COc1cc2nccc(Oc3ccc(NC(=O)NC4CC4)c(Cl)c3)c2cc1C(N)=O [Lenvatinib] when you can.
1.01

* * *

Attribute: relative viability
Tested on: SW1353
measurement-notes: relative viability vs DMSO control (72 h) (fraction); higher = more viable cells
settings: 0.01372 µM

Known relative viability results, listed for orientation:
Cc1cn(-c2cc(NC(=O)c3ccc(C)c(Nc4nccc(-c5cnccn5)n4)c3)cc(C(F)(F)F)c2)cn1; 1.06
CN(C)C[C@@H]1CCn2cc(c3ccccc32)C2=C(C(=O)NC2=O)c2cn(c3ccccc23)CCO1; 0.975
N#Cc1ccnc(N2C(=O)CC[C@H]2C(=O)N(c2cncc(F)c2)[C@H](C(=O)NC2CC(F)(F)C2)c2ccccc2Cl)c1; 0.976
COc1cc2nccc(Oc3ccc(NC(=O)C4(C(=O)Nc5ccc(F)cc5)CC4)cc3)c2cc1OC [Cabozantinib]; 1.01
Cc1cccc(-c2[nH]c(CNc3ccccc3F)nc2-c2ccc3ncnn3c2)n1; 0.947

Okay, next one:
Return the recorded relative viability value; entry: "CCCS(=O)(=O)N[C@H]1C[C@@H](N(C)c2ncnc3[nH]ccc23)C1"
1

* * *

Parameter relative viability: see the listing below.
Test system: RD
measurement-notes: relative viability vs DMSO control (72 h) (fraction); higher = more viable cells
settings: 0.3704 µM
API note: the answer field is a bare number with no unit suffix.

Cc1ccc(C(=O)OCc2ccc([C@@H](CN)C(=O)Nc3ccc4cnccc4c3)cc2)c(C)c1; 1.15
C#Cc1cccc(Nc2ncnc3cc(OCCOC)c(OCCOC)cc23)c1; 1.1
C=CC(=O)Nc1cc(Nc2nccc(-c3cn(C)c4ccccc34)n2)c(OC)cc1N(C)CCN(C)C; 1.07
FC(F)(F)c1ccc(CNc2ccc(Cc3c[nH]c4ncc(Cl)cc34)cn2)cn1; 1.15
COc1cc2ncnc(Nc3cccc(Cl)c3F)c2cc1OC(=O)N1CCN(C)C[C@H]1C; 1.12
COc1cc2nccc(Oc3ccc(NC(=O)NC4CC4)c(Cl)c3)c2cc1C(N)=O; 1.05
CCCS(=O)(=O)N[C@H]1C[C@@H](N(C)c2ncnc3[nH]ccc23)C1; 1.08

Identify relative viability associated with the compound "COc1cc2c(Oc3ccc4[nH]c(C)cc4c3F)ccnc2cc1OCC1(N)CC1"
1.04

* * *

relative viability for assorted compounds
Tested on: SW872
measurement-notes: relative viability vs DMSO control (72 h) (fraction); higher = more viable cells
settings: 10 µM
Reply briefly: the number, and no unit.

Worked examples follow.
CN(C)C[C@@H]1CCn2cc(c3ccccc32)C2=C(C(=O)NC2=O)c2cn(c3ccccc23)CCO1 [Ruboxistaurin]; 0.599
NC(=O)c1cccc2cn(-c3ccc([C@@H]4CCCNC4)cc3)nc12 [Niraparib]; 1.02
CCCS(=O)(=O)N[C@H]1C[C@@H](N(C)c2ncnc3[nH]ccc23)C1 [Abrocitinib]; 1

Provide relative viability, system SW872, entry Cc1cccc(-c2[nH]c(CNc3ccccc3F)nc2-c2ccc3ncnn3c2)n1 [Vactosertib]
1.02

* * *

# relative viability annotations
Tested on: SK-ES-1
measurement-notes: relative viability vs DMSO control (72 h) (fraction); higher = more viable cells
settings: 0.00152 µM
# output: bare number, no unit

Previously resolved entries follow.
N#Cc1ccnc(N2C(=O)CC[C@H]2C(=O)N(c2cncc(F)c2)[C@H](C(=O)NC2CC(F)(F)C2)c2ccccc2Cl)c1; 0.984
CCN(c1cc(-c2ccc(CN3CCOCC3)cc2)cc(C(=O)NCc2c(C)cc(C)[nH]c2=O)c1C)C1CCOCC1; 0.982

Please find the next compound below.
Please list relative viability recorded for the compound "NC(=O)c1cccc2cn(-c3ccc([C@@H]4CCCNC4)cc3)nc12"
1.01

* * *

Each entry below carries its reported relative viability.
System: HS729
measurement-notes: relative viability vs DMSO control (72 h) (fraction); higher = more viable cells
settings: 0.1235 µM

NC(=O)c1cccc2cn(-c3ccc([C@@H]4CCCNC4)cc3)nc12 [Niraparib]; 0.917
Cc1ccc(C(=O)OCc2ccc([C@@H](CN)C(=O)Nc3ccc4cnccc4c3)cc2)c(C)c1 [Netarsudil]; 0.876

Now, please, on to the next compound.
Give the value of relative viability reported for the following: Cc1c(F)cc(C(=O)NC2CC2)cc1-c1ccc(C(=O)NCC(C)(C)C)cn1 [Losmapimod]
0.903

* * *

Tested on: SYO-1
measurement-notes: relative viability vs DMSO control (72 h) (fraction); higher = more viable cells
settings: 0.00051 µM
readout-label: relative viability
Just the number, please, no unit attached.

C[C@H]1Oc2cc(cnc2N)-c2c(nn(C)c2C#N)CN(C)C(=O)c2ccc(F)cc21; 0.982
CCN(c1cc(-c2ccc(CN3CCOCC3)cc2)cc(C(=O)NCc2c(C)cc(C)[nH]c2=O)c1C)C1CCOCC1; 1

Annotate the compound "C#Cc1cccc(Nc2ncnc3cc(OCCOC)c(OCCOC)cc23)c1" with its measured relative viability.
0.998

Identify the reported relative viability for the following entry. "CC[C@@H]1C(=O)N(C)c2cnc(Nc3ccc(C(=O)N[C@H]4CC[C@H](N5CCN(CC6CC6)CC5)CC4)cc3OC)nc2N1C(C)C"
0.974

Give the value of relative viability reported for the following: "CCCS(=O)(=O)N[C@H]1C[C@@H](N(C)c2ncnc3[nH]ccc23)C1"
0.951

Give recorded relative viability. "COc1cc2nccc(Oc3ccc(NC(=O)NC4CC4)c(Cl)c3)c2cc1C(N)=O"
1.02

* * *

Listed here are compounds together with their documented relative viability.
System: MES-SA
measurement-notes: relative viability vs DMSO control (72 h) (fraction); higher = more viable cells
settings: 0.01372 µM
The answer should be written as a number, with no unit following it.

N#CCC1(n2cc(-c3ncnc4[nH]ccc34)cn2)CN(C2CCN(C(=O)c3ccnc(C(F)(F)F)c3F)CC2)C1; 0.922
CNC(=O)c1cc(Oc2ccc(NC(=O)Nc3ccc(Cl)c(C(F)(F)F)c3)cc2)ccn1; 0.923
NC(=O)c1cnc2[nH]ccc2c1N[C@@H]1[C@@H]2CC3C[C@H]1C[C@@](O)(C3)C2; 0.9
CN(C)C[C@@H]1CCn2cc(c3ccccc32)C2=C(C(=O)NC2=O)c2cn(c3ccccc23)CCO1; 0.923
Cc1ccc(C(=O)OCc2ccc([C@@H](CN)C(=O)Nc3ccc4cnccc4c3)cc2)c(C)c1; 0.921

Here is the next item to consider.
Provide relative viability value for the following compound: "CO[C@@H]1[C@H](N(C)C(=O)c2ccccc2)C[C@H]2O[C@]1(C)n1c3ccccc3c3c4c(c5c6ccccc6n2c5c31)C(=O)NC4"
0.891
